- test.system: nAChR comprised of α4 and β2 subunits (Rattus norvegicus, UniProt P09483+P12390)
- Sequence (P09483 31-630): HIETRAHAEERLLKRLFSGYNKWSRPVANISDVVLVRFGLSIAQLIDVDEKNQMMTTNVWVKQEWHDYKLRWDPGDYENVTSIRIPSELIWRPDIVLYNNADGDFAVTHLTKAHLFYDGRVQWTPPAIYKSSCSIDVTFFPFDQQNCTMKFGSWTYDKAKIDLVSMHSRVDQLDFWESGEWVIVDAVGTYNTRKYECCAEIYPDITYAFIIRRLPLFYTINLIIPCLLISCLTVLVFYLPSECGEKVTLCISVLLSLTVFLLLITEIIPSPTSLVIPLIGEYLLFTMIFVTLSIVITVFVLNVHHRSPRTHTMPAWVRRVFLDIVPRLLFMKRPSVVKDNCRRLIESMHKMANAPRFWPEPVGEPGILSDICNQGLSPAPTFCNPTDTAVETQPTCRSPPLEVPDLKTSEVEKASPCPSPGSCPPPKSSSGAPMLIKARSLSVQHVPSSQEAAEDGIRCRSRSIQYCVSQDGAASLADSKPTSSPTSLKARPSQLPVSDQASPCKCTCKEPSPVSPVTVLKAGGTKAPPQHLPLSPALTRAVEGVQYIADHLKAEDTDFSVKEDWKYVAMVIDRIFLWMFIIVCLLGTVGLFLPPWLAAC
- Sequence (P12390 25-500): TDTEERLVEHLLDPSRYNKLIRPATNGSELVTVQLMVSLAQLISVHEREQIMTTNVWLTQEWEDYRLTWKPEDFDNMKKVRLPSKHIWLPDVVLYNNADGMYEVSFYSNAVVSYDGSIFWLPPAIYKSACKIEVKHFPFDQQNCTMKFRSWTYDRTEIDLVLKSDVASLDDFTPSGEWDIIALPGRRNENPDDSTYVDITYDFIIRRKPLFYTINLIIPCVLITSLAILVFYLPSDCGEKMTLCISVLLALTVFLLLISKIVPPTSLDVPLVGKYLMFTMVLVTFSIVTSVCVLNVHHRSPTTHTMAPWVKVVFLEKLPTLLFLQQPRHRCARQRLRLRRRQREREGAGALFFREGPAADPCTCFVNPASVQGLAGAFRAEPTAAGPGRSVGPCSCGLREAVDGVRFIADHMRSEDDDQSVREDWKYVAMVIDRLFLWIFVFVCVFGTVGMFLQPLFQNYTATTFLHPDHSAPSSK
- test.protocol: In vitro inhibition of 3H-cytisine binding
- condition.parameters: cerebral cortex homogenate from male Wistar rats; 3H-cytisine 1 nM, 90 min at 2° C.; read-out: 3H-cytisine binding IC50
Each record here notes measured IC50.

compound: CN1CCC2CCC(C1)N2c1ccc(-c2ccccc2)nn1 (racemic) [Compound F10]
observed.value: 27 µM
--
compound: CN1C2CCC1CN(c1ccc(-c3ccsc3)nc1)CC2 (racemic) [Compound F5]
observed.value: 1.5 µM

Now look at this entry.
Give IC50 (nAChR comprised of α4 and β2 subunits (Rattus norvegicus, UniProt P09483+P12390)) of the following compound: CN1C2CCC1CN(c1ccc(-c3ccccc3)nn1)CC2 (racemic) [Compound C2] > 10 µM

###

Each record here notes measured pIC50.
- test.system: nAChR formed by the α7 subunit isoform (Rattus norvegicus)
- Sequence (Q05941 23-502): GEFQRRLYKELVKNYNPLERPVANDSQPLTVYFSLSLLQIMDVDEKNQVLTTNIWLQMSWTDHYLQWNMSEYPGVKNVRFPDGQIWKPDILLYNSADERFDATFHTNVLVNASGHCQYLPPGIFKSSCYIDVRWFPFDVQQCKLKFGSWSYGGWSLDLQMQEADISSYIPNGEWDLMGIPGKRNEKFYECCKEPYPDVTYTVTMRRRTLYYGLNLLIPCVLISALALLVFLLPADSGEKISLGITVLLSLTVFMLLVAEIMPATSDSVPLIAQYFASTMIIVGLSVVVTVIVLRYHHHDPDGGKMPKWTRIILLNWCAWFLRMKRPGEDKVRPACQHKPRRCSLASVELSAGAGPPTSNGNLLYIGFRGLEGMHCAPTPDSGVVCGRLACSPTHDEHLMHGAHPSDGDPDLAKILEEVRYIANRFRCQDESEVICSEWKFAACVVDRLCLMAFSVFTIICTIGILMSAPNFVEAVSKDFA
- test.protocol: biochemical
Formally, pIC50 is defined as -log10 of the concentration c, with c in mol/L.

molecule: CN1C2CCC1CN(c1ccc(-c3ccsc3)nc1)CC2 (racemic)
measurement.name: pIC50
observed.value: 6.55

molecule: Cc1ccccc1-c1ccc(N2CCC3CCC(C2)N3C)cn1 (racemic)
measurement.name: pIC50
observed.value: 5.26

molecule: CN1C2CCC1CN(c1ccc(-c3ccccc3)nn1)CC2 (racemic)
measurement.name: pIC50
observed.value: 6.39

Give pIC50 (nAChR formed by the α7 subunit isoform (Rattus norvegicus)) of the following molecule: CN1CCC2CCC(C1)N2c1ccc(-c2ccccc2)nn1 (racemic) 6.10

###

- test.system: nAChR comprised of α4 and β2 subunits (Rattus norvegicus, UniProt P09483+P12390)
- test.protocol: In vitro inhibition of 3H-cytisine binding
measurement.name: IC50 (nM)
Write down the numeric answer in nM and omit the unit.

molecule: Cc1ccccc1-c1ccc(N2CCC3CCC(C2)N3C)cn1 (racemic) [Compound F1]
IC50 [nM]: 99

Now look at this entry.
Give IC50 (nAChR comprised of α4 and β2 subunits (Rattus norvegicus, UniProt P09483+P12390)) of the following molecule: CN1C2CCC1CN(c1cncc(OCCOc3cncc(N4CCC5CCC(C4)N5C)c3)c1)CC2 (racemic) [Compound B7] 13

###

- test.system: serotonin transporter (Rattus norvegicus, UniProt P31652)
- Construct: Cerebral cortices from male Wistar rats (150–200 g) are homogenized
- Sequence (P31652 whole entry): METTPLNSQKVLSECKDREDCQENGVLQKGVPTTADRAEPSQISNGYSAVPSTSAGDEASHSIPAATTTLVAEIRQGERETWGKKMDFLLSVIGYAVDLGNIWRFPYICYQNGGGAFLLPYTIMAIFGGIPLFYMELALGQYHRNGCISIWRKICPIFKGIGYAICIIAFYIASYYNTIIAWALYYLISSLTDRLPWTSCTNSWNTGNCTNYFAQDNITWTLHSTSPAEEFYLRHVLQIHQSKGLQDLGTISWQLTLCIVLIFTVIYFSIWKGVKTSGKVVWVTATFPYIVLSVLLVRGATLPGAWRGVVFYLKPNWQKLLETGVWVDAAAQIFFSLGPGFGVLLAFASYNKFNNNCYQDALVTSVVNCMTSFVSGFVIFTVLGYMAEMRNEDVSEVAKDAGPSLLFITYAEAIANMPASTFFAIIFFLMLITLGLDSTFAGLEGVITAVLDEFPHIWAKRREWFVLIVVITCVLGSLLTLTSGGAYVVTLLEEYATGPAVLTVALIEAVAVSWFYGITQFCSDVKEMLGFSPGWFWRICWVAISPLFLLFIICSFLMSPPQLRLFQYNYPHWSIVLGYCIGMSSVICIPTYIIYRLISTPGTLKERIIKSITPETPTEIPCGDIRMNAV
- test.protocol: In vitro inhibition of 3H-5-hydroxytryptamine (3H-5-HT, serotonin) uptake in cortical synaptosomes
Each record here notes measured IC50.
Write down the numeric answer in µM and omit the unit.

# count of solved cases: 4
molecule: CN1C2CCC1CN(c1ccc3ccccc3n1)CC2 (racemic)
test.system: serotonin transporter (Rattus norvegicus, UniProt P31652)
IC50 / µM: 0.013
--
molecule: CN1C2CCC1CN(c1ccc(Cl)c(Cl)c1)CC2 (racemic)
test.system: serotonin transporter (Rattus norvegicus, UniProt P31652)
IC50 / µM: 0.032
--
molecule: CN1C2CCC1CN(c1ccc3cc([N+](=O)[O-])ccc3n1)CC2 (racemic)
test.system: serotonin transporter (Rattus norvegicus, UniProt P31652)
IC50 / µM: 0.0037
--
molecule: CN1C2CCC1CN(c1ccc3ccccc3c1)CC2 (racemic)
test.system: serotonin transporter (Rattus norvegicus, UniProt P31652)
IC50 / µM: 0.04

Now look at this entry.
Give IC50 (serotonin transporter (Rattus norvegicus, UniProt P31652)) of the following molecule: c1ccc2ncc(N3CCC4CCC(C3)N4)cc2c1 (racemic) 0.049

All figures here come from patent US7060699B2.
